MEASURED_ON: UniProtKB O15530
TEST_PROTOCOL: PDK1 Kinase Alpha Screen Assay
Format: biochemical
CONDITIONS_USED: PDK1 Kinase Alpha Screen Assay; read-out: PDK1 IC50
Measured IC50 accompanies every entry in the list below.

NS(=O)(=O)c1ccc(Nc2ncc3cccc(C(=O)N4CCS(=O)(=O)CC4)c3n2)cc1 | 10 to 25 µM

Fill in the blank: the reported IC50 of CN1CCN(c2cc(-c3cccc4cnc(Nc5ccc(S(N)(=O)=O)cc5)nc34)ccn2)CC1 is ____.
< 5 µM

What measured IC50 goes with c1csc(-c2cc(OC3CNC3)c3nc(Nc4ccc(N5CCOCC5)cc4)ncc3c2)n1 ?
< 5 µM

// IC50 lookup, key: O=S(=O)(c1cccc(Nc2ncc3c(Cl)ccc(OC4CNC4)c3n2)c1)N1CCOCC1
< 5 µM

Which IC50 is listed for NS(=O)(=O)c1ccc(Nc2ncc3cccc(C(=O)N4CCOCC4)c3n2)cc1 ?
5 to 10 µM

----------
System: PC-3 cells
TEST_PROTOCOL: Cell Proliferation Assay (Cell Titer Glo), PC-3 cell line
Assay type: cell-based
CONDITIONS_USED: Homo sapiens, PC-3, PC3 cells; read-out: CPEC50 PC3
pEC50: −log10 of the molar value.
VALUE_TYPE: pEC50

CCN1CCC[C@H]1CNc1ccc(-c2cccc3cnc(Nc4ccc(S(N)(=O)=O)cc4)nc23)cn1 | > 5.30
CC(=O)Nc1ccc(Nc2ncc3cccc(-c4ccc(NCCN5CCCC5)nc4)c3n2)cc1C | > 5.30
CN1CCN(C(=O)c2ccc(-c3cc(F)cc4cnc(Nc5ccc(S(N)(=O)=O)cc5)nc34)cc2)CC1 | > 5.30
Nc1cc(C(F)(F)F)c(-c2cccc3cnc(Nc4ccc(S(N)(=O)=O)cc4)nc23)cn1 | > 5.30
CC(C)N1CCC(Oc2cccc3cnc(Nc4cccc(CC(N)=O)c4)nc23)CC1 | 5.00 to 5.30

Give the reported pEC50 for CNC(=O)Cc1cccc(NC(=O)Cc2cccc(Nc3ncc4cccc(OC5CCN(C(C)C)CC5)c4n3)c2)c1 (system: PC-3 cells).
> 5.30

Give recorded pEC50 with PC-3 cells for the following compound: CC(C)NC(=O)Cc1ccc(Nc2ncc3cccc(OC4CCN(C(C)C)CC4)c3n2)cc1
> 5.30

API: value(readout=pEC50, system=PC-3 cells) for record CC(C)N1CCC(Oc2ccc3cnc(Nc4ccc(N)c(Cl)c4)nc3c2)CC1
5.00 to 5.30

----------
MEASURED_ON: PDK1 kinase (Homo sapiens, UniProt O15530)
Sequence (O15530 1-556): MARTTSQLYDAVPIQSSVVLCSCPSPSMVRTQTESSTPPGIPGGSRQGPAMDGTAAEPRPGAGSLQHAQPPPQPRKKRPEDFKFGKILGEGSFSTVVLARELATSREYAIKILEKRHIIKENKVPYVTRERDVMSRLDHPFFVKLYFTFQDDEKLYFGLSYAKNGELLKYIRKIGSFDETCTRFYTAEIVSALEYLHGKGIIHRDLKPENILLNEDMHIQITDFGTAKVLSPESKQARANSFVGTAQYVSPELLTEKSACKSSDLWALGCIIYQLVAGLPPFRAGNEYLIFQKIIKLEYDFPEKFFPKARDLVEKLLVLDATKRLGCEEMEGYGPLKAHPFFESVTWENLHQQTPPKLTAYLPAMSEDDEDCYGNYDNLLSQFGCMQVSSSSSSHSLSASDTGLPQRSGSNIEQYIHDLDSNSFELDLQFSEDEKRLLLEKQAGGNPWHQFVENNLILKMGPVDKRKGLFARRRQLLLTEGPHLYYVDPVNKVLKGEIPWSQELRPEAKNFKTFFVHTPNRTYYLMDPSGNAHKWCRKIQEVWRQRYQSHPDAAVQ
TEST_PROTOCOL: PDK1 Kinase Alpha Screen Assay
Type: biochemical
CONDITIONS_USED: read-out: PDK1 IC50
IC50 reference

CC(=O)Nc1ccc(Nc2ncc3ccc(OC4CCNCC4)cc3n2)cc1C [Compound 63] | < 5 µM
CN1CCN(c2ccc(-c3cccc4cnc(Nc5ccc(S(N)(=O)=O)cc5)nc34)cc2)CC1 [Compound 985] | < 5 µM
CC(=O)Nc1ccc(Nc2ncc3cccc(OC4CCN(C(C)C)CC4)c3n2)cc1 [Compound 73] | < 5 µM

# query: IC50 of entry CN1CCN(c2cc(-c3cccc4cnc(Nc5ccc(S(N)(=O)=O)cc5)nc34)ccn2)CC1 [Compound 106]
< 5 µM

Sample NS(=O)(=O)c1ccc(Nc2ncc3ccc(-c4ccccc4)c(OC4CCNCC4)c3n2)cc1 [Compound 67] — what was its IC50?
< 5 µM

----------
Tested on: PC-3 cells
TEST_PROTOCOL: Cell Proliferation Assay (Cell Titer Glo), PC-3 cell line
Assay type: cell-based
CONDITIONS_USED: Homo sapiens, PC-3, PC3 cells; read-out: CPEC50 PC3
pEC50: −log10 of the molar value.
Each item that follows carries a reported pEC50.

Fc1ccc(Nc2ncc3cccc(-c4ccc(NCCN5CCCC5)nc4)c3n2)cc1F [Compound 1018] | > 5.30
CN1CCC(NC(=O)c2cncc(-c3cccc4cnc(Nc5ccc(S(N)(=O)=O)cc5)nc34)c2)CC1 [Compound 981] | 5.00 to 5.30
CNS(=O)(=O)Cc1ccc(Nc2ncc3ccc(OC4CCN(C(C)C)CC4)cc3n2)cc1 [Compound 990] | > 5.30

Moving on to another compound below.
Any idea what pEC50 was measured for CN(C)[C@@H]1CCN(C(=O)c2cncc(-c3cccc4cnc(Nc5ccc(S(N)(=O)=O)cc5)nc34)c2)C1 [Compound 976] ?
5.00 to 5.30

----------
MEASURED_ON: PDK1 kinase (Homo sapiens, UniProt O15530)
Sequence (O15530 1-556): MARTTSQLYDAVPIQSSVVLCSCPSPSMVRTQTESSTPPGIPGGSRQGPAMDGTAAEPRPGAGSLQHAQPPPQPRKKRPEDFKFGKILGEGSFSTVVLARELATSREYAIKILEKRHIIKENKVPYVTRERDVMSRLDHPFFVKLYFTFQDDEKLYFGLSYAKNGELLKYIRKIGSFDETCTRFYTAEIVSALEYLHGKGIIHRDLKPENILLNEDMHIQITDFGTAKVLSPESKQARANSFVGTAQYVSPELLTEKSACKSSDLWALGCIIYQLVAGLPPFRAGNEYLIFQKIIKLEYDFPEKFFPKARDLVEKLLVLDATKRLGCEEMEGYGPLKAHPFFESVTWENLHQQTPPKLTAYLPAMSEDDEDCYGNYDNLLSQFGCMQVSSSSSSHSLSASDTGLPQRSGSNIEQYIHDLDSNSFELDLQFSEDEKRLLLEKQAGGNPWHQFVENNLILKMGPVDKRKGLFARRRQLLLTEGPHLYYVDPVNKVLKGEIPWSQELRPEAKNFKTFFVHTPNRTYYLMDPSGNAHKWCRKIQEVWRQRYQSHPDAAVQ
TEST_PROTOCOL: PDK1 Kinase Alpha Screen Assay
Assay type: biochemical
CONDITIONS_USED: PDK1 Kinase Alpha Screen Assay; read-out: PDK1 IC50
# key: entry, value: IC50

Here's what some known entries look like.
C#Cc1cc(OC2CCNCC2)c2nc(Nc3cc(C(N)=O)cc(-c4cnn(C)c4)c3)ncc2c1 [Compound 668] | < 5 µM
CC(C)NS(=O)(=O)c1ccc(Nc2ncc3c(Br)ccc(OC4CCNCC4)c3n2)cc1 [Compound 342] | < 5 µM
CC(=O)Nc1ccc(COc2cccc3cnc(Nc4ccc(S(N)(=O)=O)cc4)nc23)cc1 [Compound 514] | < 5 µM
CC(C)(C(N)=O)C(=O)NCCOc1cccc2cnc(Nc3ccccc3)nc12 [Compound 508] | 5 to 10 µM

Alright, here's another molecule for you.
// IC50 lookup, key: Clc1ccc(OC2CCNCC2)c2nc(Nc3cccc(-c4cc[nH]n4)c3)ncc12 [Compound 617]
< 5 µM

----------
MEASURED_ON: PDK1 kinase (Homo sapiens)
TEST_PROTOCOL: PDK1 Kinase Alpha Screen Assay
Format: biochemical
CONDITIONS_USED: PDK1 Kinase Alpha Screen Assay; read-out: PDK1 IC50
pIC50: −log10 of the molar value.
VALUE_TYPE: pIC50

Below, each entry is followed by its recorded pIC50 result.
CN(C)C(=O)c1ccc(Nc2ncc3cccc(OC4CCNCC4)c3n2)cc1F | > 5.30
N#Cc1cc2cnc(Nc3ccc(N4CCOCC4)cc3)nc2cc1OC1CCNCC1 | > 5.30
Cc1ccc(C(=O)O)cc1-c1ccc2cnc(Nc3ccc(S(N)(=O)=O)cc3)nc2c1 | > 5.30

Then this compound:
Reported pIC50 for PDK1 kinase (Homo sapiens), given O=S(=O)(c1cccc(Nc2ncc3c(Br)ccc(OC4CCNCC4)c3n2)c1)N1CCOCC1 ?
5.00 to 5.30

----------
MEASURED_ON: PDK1 kinase (Homo sapiens, UniProt O15530)
Sequence (O15530 1-556): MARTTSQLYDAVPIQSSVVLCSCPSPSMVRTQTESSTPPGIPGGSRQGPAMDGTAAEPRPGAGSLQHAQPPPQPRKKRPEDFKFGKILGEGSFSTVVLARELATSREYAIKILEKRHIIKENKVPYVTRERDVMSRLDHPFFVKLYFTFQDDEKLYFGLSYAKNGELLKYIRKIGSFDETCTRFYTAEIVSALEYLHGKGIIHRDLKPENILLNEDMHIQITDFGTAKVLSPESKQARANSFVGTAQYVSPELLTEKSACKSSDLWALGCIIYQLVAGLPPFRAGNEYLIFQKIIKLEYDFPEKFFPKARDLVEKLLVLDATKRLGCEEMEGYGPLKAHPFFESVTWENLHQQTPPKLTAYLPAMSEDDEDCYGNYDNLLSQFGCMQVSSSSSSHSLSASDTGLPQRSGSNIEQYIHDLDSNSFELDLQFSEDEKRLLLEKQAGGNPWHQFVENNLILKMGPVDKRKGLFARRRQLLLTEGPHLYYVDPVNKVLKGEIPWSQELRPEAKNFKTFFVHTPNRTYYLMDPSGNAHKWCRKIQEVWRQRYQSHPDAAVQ
TEST_PROTOCOL: PDK1 Kinase Alpha Screen Assay
Type: biochemical
CONDITIONS_USED: read-out: PDK1 IC50
pIC50: −log10 of the molar value.
VALUE_TYPE: pIC50

So what's the measured pIC50 for this one? NC(=O)c1cccc(-c2ccc3cnc(Nc4ccc(S(N)(=O)=O)cc4)nc3c2)c1 [Compound 123]
> 5.30

Endpoint output: pIC50 of NS(=O)(=O)c1ccc(Nc2ncc3cccc(-c4cn[nH]c4)c3n2)cc1 [Compound 104] . Value?
> 5.30

// pIC50 lookup, key: NS(=O)(=O)c1ccc(Nc2ncc3cccc(-c4cncc(CNC5CCOCC5)c4)c3n2)cc1 [Compound 948]
> 5.30

What value of measured pIC50 is listed for CCN(CC)CCNc1ccc(-c2cccc3cnc(Nc4ccc(S(N)(=O)=O)cc4)nc23)cn1 [Compound 954] ?
> 5.30

I am curious: what pIC50 value has been reported for CNS(=O)(=O)Cc1ccc(Nc2ncc3cccc(OC4CCN(C(C)C)CC4)c3n2)cc1 [Compound 82] ?
> 5.30
